# Test system: OVCAR-4 ovarian
# experiment: NCI tumour cell line growth inhibition, 48 h
Can you tell me TGI for the items I'm about to list?

Entry COc1ccc(/C=C\c2cc(OC)c(OC(C)=O)c(OC)c2)cc1 , OVCAR-4 ovarian data, TGI value: > 100 µM

Entry CC(=O)c1ccc(-c2ccc(C(C)=O)s2)s1 , OVCAR-4 ovarian data, TGI value: > 100 µM

Entry O=C(Nc1ccccn1)c1cc2c(cc1Cl)Sc1nccn1S2(=O)=O , OVCAR-4 ovarian data, TGI value: > 100 µM

Entry O=C1CCCC1C(O)(C(F)(F)Cl)C(F)(F)Cl (stereo not drawn) , OVCAR-4 ovarian data, TGI value: > 10 µM

Entry Cc1nc2c(ccc3[nH]c4ccccc4c32)s1 , OVCAR-4 ovarian data, TGI value: > 100 µM

Entry Clc1ccc2c(NCCCNCc3ccc4c(c3)OCO4)ccnc2c1 , OVCAR-4 ovarian data, TGI value: 24.8 µM

Entry COC(=O)/C=C/[C@H]1[C@H](C)N1S(=O)(=O)c1ccc(C)cc1 (stereo partly drawn) , OVCAR-4 ovarian data, TGI value: > 100 µM

Entry COc1ccc(C2=Nn3c(C)nnc3S/C2=C\c2ccc(-c3ccc([N+](=O)[O-])cc3)o2)cc1 , OVCAR-4 ovarian data, TGI value: > 100 µM

Entry COc1ccc(/C=C2\CCC(CN(C)C)C2=O)cc1 (stereo not drawn) , OVCAR-4 ovarian data, TGI value: 16.1 µM

Entry O=C(Nc1ccc(-n2cc(-c3ccncc3)c(-c3ccc(Cl)c(O)c3)n2)cc1)c1ccc(Cl)c(C(F)(F)F)c1 , OVCAR-4 ovarian data, TGI value: > 90.4 µM

Entry C/C(=N\O)c1ccc(Nc2cc(-c3ccccc3)nc3c(O)cccc23)cc1 , OVCAR-4 ovarian data, TGI value: 73.2 µM

Entry CN1CCN(C(=S)N(C(=O)c2ccc(Cl)cc2)C2CCCCC2)CC1 , OVCAR-4 ovarian data, TGI value: > 100 µM

Entry COc1ccc(/C=C2\NC(=S)N(CN3CCOCC3)C2=O)cc1 , OVCAR-4 ovarian data, TGI value: > 100 µM

Entry COc1ccc(OC/C(N=Cc2cccnc2)=N/NC(=O)c2ccncc2)cc1 , OVCAR-4 ovarian data, TGI value: > 100 µM

Entry CSc1c(C#N)c(=O)n(N)c2n[nH]c(C)c12 , OVCAR-4 ovarian data, TGI value: > 100 µM

Entry COC(=O)CCC(=O)c1ccc2c(c1)CC1(Cc3ccccc3C1)C2 , OVCAR-4 ovarian data, TGI value: > 100 µM

Entry CC(C)(C)OC(=O)/C=C/[C@@H](CCC(=O)/C=C/[C@H](/C=C\CCCC(=O)O)NC1(c2ccccc2)c2ccccc2-c2ccccc21)O[Si](C)(C)C(C)(C)C , OVCAR-4 ovarian data, TGI value: 53.9 µM

Entry C=C(C)[C@H]1C=C[C@@H](OC(C)=O)[C@@]2(COC(C)=O)[C@H](OC(=O)CCC)[C@H]3[C@@H](OC(C)=O)[C@@H](C)C[C@]3(O)C(=O)[C@@](C)(OC(C)=O)[C@H]12 , OVCAR-4 ovarian data, TGI value: > 100 µM

Entry C[C@@H](Br)[C@@H]1CC[C@H]2c3[nH]c4ccccc4c3CCN2C1 , OVCAR-4 ovarian data, TGI value: > 100 µM

Entry CCN(CC)C(=O)CCNC(C)Cc1c[nH]c2ccccc12 (stereo not drawn) , OVCAR-4 ovarian data, TGI value: > 100 µM

Entry OCC1C2C=CC(O2)[C@H]1CO (stereo partly drawn) , OVCAR-4 ovarian data, TGI value: > 100 µM

Entry O=C1OC(/C=C/c2ccccc2)C(=O)C1=O (stereo not drawn) , OVCAR-4 ovarian data, TGI value: > 100 µM

Entry O=c1cc(/C=C/c2ccccc2)c2ccc(O/C(=C\c3ccccc3)c3nc4ccccc4c(=O)o3)cc2o1 , OVCAR-4 ovarian data, TGI value: > 100 µM

Entry O=c1n(CC2CO2)c2ccccc2n1CC1CS1 (stereo not drawn) , OVCAR-4 ovarian data, TGI value: > 100 µM

Entry O=C1N(c2ccccc2)N=C2c3ccncc3C3=NN(c4ccccc4)C(=O)C123 (stereo not drawn) , OVCAR-4 ovarian data, TGI value: > 100 µM

Entry Cc1cc(=O)[nH]c2c1C(=O)C(=O)C=C2 , OVCAR-4 ovarian data, TGI value: 63.4 µM

Entry CC(=O)NC1C(OCc2ccccc2)OC(COC(=O)CCCCCCCCCCNC(=O)CCNc2ccc([N+](=O)[O-])c3[nH]c4ccc(O)cc4c(=O)c23)C(O)C1OC(C)C(=O)N[C@H](C(=O)N[C@H](CCC(=O)O)C(N)=O)C(C)C (stereo partly drawn) , OVCAR-4 ovarian data, TGI value: > 100 µM

Entry O=c1c(-c2nc3ccccc3[nH]2)cc2ccccc2n1Cc1cn(Cc2ccc(F)cc2)nn1 , OVCAR-4 ovarian data, TGI value: > 100 µM

----------
# Test system: OVCAR-5 ovarian
# experiment: NCI tumour cell line growth inhibition, 48 h
Can you tell me TGI for the items I'm about to list?

Field TGI (entry O=C1/C=C/[C@@H](O)[C@@H]2C[C@@H](O)C[C@H]2/C=C/CCCCO1 ) reads > 61.7 µM

Field TGI (entry Oc1ccccc1/C=N/N1C(=S)N(c2ccccc2)C(=Nc2ccccc2)C1=Nc1ccccc1 ) reads > 52.4 µM

Field TGI (entry COc1ccc(C2=Nn3c(C)nnc3S/C2=C\c2ccc(-c3ccc([N+](=O)[O-])cc3)o2)cc1 ) reads 43 µM

Field TGI (entry CC(C)[Si](CC1=CCCCC12C(=O)N(COCC[Si](C)(C)C)c1ccccc12)(C(C)C)C(C)C (stereo not given) ) reads 80.9 µM

Field TGI (entry C[C@H](N)C(=O)Nc1ccc(-c2nc3ccccc3s2)cc1Cl ) reads 14.9 µM

----------
# System: OVCAR-5 ovarian
# experiment: NCI tumour cell line growth inhibition, 48 h
attribute measured: TGI

Entry COc1cc(Nc2nccc(-c3cnn4ncccc34)n2)cc(OC)c1 , OVCAR-5 ovarian data, TGI value: 1.9 µM

Entry O=C(O)c1cccc(F)c1C(=O)c1ccc2ccccc2c1 , OVCAR-5 ovarian data, TGI value: > 100 µM

Entry COc1ccccc1N1C(=O)/C(=C\c2ccccc2)SC1c1cc(OC)c(OC)c(OC)c1 (stereo unspecified) , OVCAR-5 ovarian data, TGI value: > 100 µM

Entry COc1ccc(S(=O)(=O)Nc2c(/C=C\c3cc(OC)c(OC)c(OC)c3)ccc(OC)c2O)cc1OC , OVCAR-5 ovarian data, TGI value: > 100 µM

Entry COC(=O)/C=C/[C@H]1[C@H](C)N1S(=O)(=O)c1ccc(C)cc1 (stereo partly specified) , OVCAR-5 ovarian data, TGI value: > 100 µM

Entry N=C(N)c1ccc(-c2ccc(-c3ccccc3)o2)o1 , OVCAR-5 ovarian data, TGI value: 10.9 µM

Entry COc1ccc(-c2c(C#N)c(N)n(C3OC(COC(C)=O)C(OC(C)=O)C(OC(C)=O)C3OC(C)=O)c(=S)c2C#N)cc1 (stereo unspecified) , OVCAR-5 ovarian data, TGI value: > 100 µM

Entry Cc1cccc2c1CC1(Cc3c(C)cccc3C1=O)C2=O , OVCAR-5 ovarian data, TGI value: > 100 µM

Entry CCOC(=O)C(/C=N/C(N)=S)=C(/O)c1ccccc1 , OVCAR-5 ovarian data, TGI value: > 100 µM

Entry CSc1nc(NC2OC(CO)C(O)C(O)C2O)c(N)c(=O)[nH]1 (stereo unspecified) , OVCAR-5 ovarian data, TGI value: > 100 µM

Entry COc1ccc(-c2nc3ccccc3c(=O)[nH]2)cc1OC , OVCAR-5 ovarian data, TGI value: > 100 µM

Entry COc1ccccc1NC(=O)C(=O)C(C#N)CC(C)(C)C=O (stereo unspecified) , OVCAR-5 ovarian data, TGI value: > 100 µM

Entry COc1cc(-c2nc3cc(Cl)c(Cl)cc3[nH]2)ccc1OCC(=O)N=Nc1c(O)[nH]c2ccccc12 , OVCAR-5 ovarian data, TGI value: 2.45 µM

Entry CCOC(=O)C1=CN(Cc2ccccc2)C2ON=C(c3ccc(Cl)cc3)C2C1 (stereo unspecified) , OVCAR-5 ovarian data, TGI value: > 68.7 µM

Entry CC1(C)C/C=C\CCC(O)C(O)CCC(C)(C)C1=O (stereo unspecified) , OVCAR-5 ovarian data, TGI value: > 100 µM

Entry CC(=O)O[C@H]1CC[C@@]2(C)[C@@H](CC[C@@H]3[C@@H]2CC(=O)[C@@]2(C)[C@H]3C[C@@H]3CC(C)=CC(=O)[C@@H]32)C1 , OVCAR-5 ovarian data, TGI value: > 100 µM

Entry COc1ccc2nc3c(cc2c1)C(=O)CC(C(F)(F)F)C3 (stereo unspecified) , OVCAR-5 ovarian data, TGI value: > 100 µM

Entry CCOc1ccc(-n2cc(-c3ccc(N(C)C)cc3)[n+]3c2CCCCC3)cc1 , OVCAR-5 ovarian data, TGI value: > 100 µM

Entry COc1ccc2c(c1)[n+](=O)c(C(=O)C/C(=N\NC(=O)C[N+](C)(C)C)C(=O)Nc1cc(Cl)ccc1Cl)c(C)n2O , OVCAR-5 ovarian data, TGI value: > 100 µM

Entry O=c1[nH]nc(-c2ccccc2)c2[nH]c3c(c12)CCCc1ccccc1-3 , OVCAR-5 ovarian data, TGI value: 34.8 µM

Entry CN(CC(=O)O)Cc1c[nH]c2ccccc12 , OVCAR-5 ovarian data, TGI value: > 100 µM
